Target: mBFP
Construct: no tag mentioned; codon-optimized gene (amplicon 780 bp) used only in cells
Assay: thermal shift (SYPRO Orange), concentration dependence
Conditions: NADPH 0-10 mM; 40 to 70 °C in 0.5 °C steps
measured-endpoint: pKd
// returns pKd (minus log10 of molar concentration), number only

Q: What does the data say about its pKd? Entry: NC(=O)C1=CN([C@@H]2O[C@H](COP(=O)(O)OP(=O)(O)OC[C@H]3O[C@@H](n4cnc5c(N)ncnc54)[C@H](OP(=O)(O)O)[C@@H]3O)[C@@H](O)[C@H]2O)C=CC1
Result: 3.19
